Origin of the recorded values: the nanobody polyreactivity screen of Harvey et al. (2022)

- ASSAY_NOTES: yeast display, Sf9 membrane polyspecificity reagent, FACS + sequencing; frameworks hold sequencing errors
PROPERTY_NAME: polyreactivity (PSR sort gate)

QVQLVESGGGLVQAGGRLRLSCAASGYTFPLYARGWYRQAPGKERELVADINIGGASSYYADSVKGRVTISRDNAKKTVYLQMNSLKPEDTAVYYCAKEYYDGYFPTFDYDYWGQGTQVTVSS
low polyreactivity
QVQLVESGGGLVQAGGSLRLSCAASGRIFPYYAMGWYRQAPGKERELVAAISQSDGSTYYADSVKGRFTISRDNEKNTVYLQMNSLKPEVTAVYYWAKRQASYTQHRKGRGDYWGQGTQVTVSS
low polyreactivity
QVQLVESGGGLVQAGGSLRLSCAASGYTFWDNAMGWYRQAPGKERELVAAITIRSGRTYYADSVKGRFTISRDNAKNTVYLQMNSLKPEDTAVYYCNAQIYTYRTGRGYSRMDYWGKGTQVTVSS
high polyreactivity
QVQLVESGGGLVQAGGSLRLSCAASGSIFLYNAMGWYRQAPGKERELVADITTTGGSTYYADSVKGRFTISRDNAKNTVYLQMNSLKPEDTAVYYCNVDYWGQGTQVTVSS
low polyreactivity

*Q* State the recorded polyreactivity (PSR sort gate) for this entry: `QVQLVDSGGGLVQAGASLRLSCAASGRIITAYYAMGWYRQAPGKERELVASISSSGTSTYADSVKGRFTISRDYAKNTVYLQMKSLKPEDTAVYYCATRKQRTRRYDYGYWGQGTQVTVSS`
*A* low polyreactivity

*Q* Again, but for `QVQHVESGGGLDQAGGSLRLRCAAYGFTFSFYAMGWYRQEPGKERELVAAISYSGGITYYADSVKGRFTISRDNAKNTVYLQMNSLKPEDTAVYYCAAVPYYSKGSSLYNSGNNYWGQGTQVTVSS`
*A* low polyreactivity

*Q* Again, but for `QVQLVESGGGLVQAGGSLRLSCAASGRTFYPNVMGWYRQAPGKERELVAAITSGGSTYYADSVKGRFTISRDNAKNTVALEMNSQKPEDTAVYYCAVAYAGGGSRKYDYWGQGTQVTVSS`
*A* low polyreactivity

*Q* Again, but for `QVQLQESGGGLVQAGGSLRLSCASSGSISILQSMGWYRQAPGKERELVAGINWGATTYYADSVKGRLTTSRDYAKNTVYLQMNSLKPEDTGVYYCAVPTYYTYPLLYWGQGTQVTVSS`
*A* low polyreactivity

*Q* Again, but for `QVQLVESGGGLDQAGGSLRLSCAASGFILGDYAMGWYRQAPGKERELVAAITSSGGSTYYADSVKGRFTISRDNAKNTVYFQMNSLKPEDTAVYYCNTVYVYGPEYDYWGQGTQVTVSS`
*A* high polyreactivity

*Q* Again, but for `QVQLVESGGGLVQAGGSLSLSCAASGIIFIYYGMGWYRQAPGKERELVAAISRSGGRTYYADSVKGRFTISRDNAKNTVYLQMNSLKPEDTAVYYCATTYTPTGFDYWGQGTQVTVSS`
*A* high polyreactivity

*Q* Again, but for `QVQLVESGGGLVQAGGSLRLSCAGSGSTFRSNAMGWYRQAPGKERELVAAISQRGGSTYYADSVKGRFTISRDNAKNTVYLQMNSLKPEDTAVYYCAAQYFRRSGYWGQGTQVTVSS`
*A* high polyreactivity

====

- ASSAY_NOTES: yeast display, Sf9 membrane polyspecificity reagent, FACS + sequencing; frameworks hold sequencing errors
PROPERTY_NAME: polyreactivity (PSR sort gate)

Completed entries (count: 4):
QVQLVESGGGLVQAGGSLRLSCAASGSTFPVNTMGWYRQAPGKERELVAAISWSGGRTYYADSVKGRFTISRDNAKNTVYLQMNSLKPEDTAVYYCAAEWEGTYTTVPDEFNYWGQGTQVTVSS
high polyreactivity
QVQHVESGGGLVQAGGSLRLSCAASGSIFTDYAMGWYRQAPGHDRELVAAITLGGNTNYADSVKGRFTISRDNAKHSVYLEMISLLREDTAVYDCATGGYYSAIVYGGYDVWGQGTQVTVSS
low polyreactivity
QVQLVESGVGLVQAGGSLRLSCAASGNIFLKNAMGWYRQAPGKERELVAAMSKRGGSTYYADSVKGRFTISRDNAKNTVYLQMNSLKPEDTAVYYCAARFKTTGYDYWGQGTQVTVSS
high polyreactivity
QVQLVESGGGLVQAGGSLRLSCAASGRTFTIYAMGWYRQAPGKERELVAGITSAGRTYYADSVKGRFTISRDNAKNTVYSQMNSLNPEDTAVDYCAASGSYAIVWGDQYYGYYYWGQGTQVTVSS
high polyreactivity

// switching to the query sequence
*Q* State the recorded polyreactivity (PSR sort gate) for this entry: `QVQLVESGGGLLQAGGSQSLSCAASGIISFSNTMGWYIQAPGKERELVAAIDSGGDDTYYADSVKGRFTISRDNAKNSVYLQMNCLKAEDSAVDYCAKDAFFTEIAIRDQIISHHYYWGHGTQVTVSS`
*A* low polyreactivity

====

- ASSAY_NOTES: yeast display, Sf9 membrane polyspecificity reagent, FACS + sequencing; frameworks hold sequencing errors
PROPERTY_NAME: polyreactivity (PSR sort gate)

QFQLVESGGGLVQAGGSLRLSCAASGSIIGPYAMGWYRQAPVKERELVAVISSGDSKNYADSVKGRFTISRDNAKNTVYLQMNSLKQEDNEVSYCRCKYDVAHHFWVYRYDYWGHGTQVTVSS
low polyreactivity
QVQLVESGGGLVQAGGSLRLSCAASGRIFASYAMGWYRQAPGKERELVAAISAGGGSRTYYADSVKGRFTISRDNAKNTVYLQMNSLKPEDTAVYYCNTANSWQRQYYYWGQGTQVTVSS
high polyreactivity
QVQLVESGGGLVQAGGSLRLSCAASGFTFVSYAMGWYRQAPGKEREFVATISKRGGSTYYADSVKGRFTNSRDNAKNTVYLQMNSLKPEDTAVYYCAAARNVYRGRVYWGRYDYWGQGTQVTVSS
high polyreactivity
QVQLVESGGGLVQAGGSLRLSCAASGSILDFNAMGWYRQAPGKERELVAAISDSSGSTFYAVSVKGRFTISRDNAKNTVYLLMISLKPEDTAVYYCAARLGFYPYGYTSWYTVYFWGQGTQVTVSS
low polyreactivity
QVQLVESGGGLFQAGGSLRLICAASGSTFLNNAMGWYRQAPGKERELVAAISYRGGSTYYADSVKGRFTISRDNAKNTVYLQMNSLKPEDTAVYYCAAEVTRFWWRSPYDYNYWGQGTQVTVSS
high polyreactivity

*Q* State the recorded polyreactivity (PSR sort gate) for this entry: `QVQLVESGGGLVQAGGSLRLSCAASGFIFYKNAMGLYRQAPGKERELVAAISRRGSSTYYADSVKGRFTISRDNAKNTVYLQMNSLKPEDTAVYYCAARFTRRDYWGQGTQVTVSS`
*A* high polyreactivity

*Q* Again, but for `QVQLVESGGGLVQAGGSLRLSCAASGRIFGLYTMGWYRQAPGKEREFVAGITYSAGRTYYADSVKGRFTISRDNAKNTVYLQMNSLKPEDTAVYYCAATRRWYPTKLYGYWGQVTQVTVSS`
*A* high polyreactivity

*Q* Again, but for `QVQLVESGGGLVQAGGSLRLSCAASGSTISGYAMGWYRQAPGKERELVATISRGGSTNYADSVKGRFTISRDNAKNTVYLQMNSLKPEDTAVYNCAAQTYVWWVKYHSWGQGTQVTVSS`
*A* low polyreactivity

====

- ASSAY_NOTES: yeast display, Sf9 membrane polyspecificity reagent, FACS + sequencing; frameworks hold sequencing errors
PROPERTY_NAME: polyreactivity (PSR sort gate)

QVQLVESGGGLVQAGGSLRLSCAASGFTFGEYAMGWYRQAPGKEREFVAAISATGGSTYYADSVKGRFTISRDNAKNTVYLQMNSLKPEDTAVYYCAARDAYYDGYDYWGQGTQVTVSS
low polyreactivity
QVQLVESGGGLVQAGGSLRLICAASGFIFGHYAMGWYRQAPGNERELVAAISTGGDGTYYADSVKGRFTISRDNAKNTVYLQMNSLKPEDTAVYYCAVRHRASGILYYYWGQATQVTVSS
low polyreactivity
QVQLVESGGGLVQAGGSLRLSCAASGLIFRYYAMGWYRQAPGKERELVATIRGGGSTYYADSVKGRFTISRDNAKNTVYLQMNSLKPEDTAVYYCAADPYSYGARGARGDYWGQGTQVTVSS
low polyreactivity
QVQLVESGGGLVQAGGSLRLSCAASGSIFGSNAMGWYRQAPGKERELVAAITSRGGSTYYADSVKGRFTISRDNAKNTVYLQMNSLKPEDTAVYYCAADYQSVGGAEYDYWGQGTQVTVSS
high polyreactivity
QVQLVESGGGLVQAGGSLRLSCAASGSLFFLYAMGWYRQAPGKDRELVAAISRTGSTYADSVKGRFTISRDNAKTTVYLQMNSVKPEDTAVYYCAAEYRYYWYGTMNYWGQCTQVTVSS
low polyreactivity

*Q* State the recorded polyreactivity (PSR sort gate) for this entry: `QVQLVESGGGLVQAGGSLRLSCAASGIIFYRNAMGWYRQAPGKERELVAAISSSGGRTYYADSVKGRFTISRDNAKNTVYLQMNSLKPEDTAVYYCAADYQWFWVWYGYWGQGTQVTVSS`
*A* high polyreactivity

*Q* Again, but for `QVQLVESGGGLVQAGGSLRLSCAASGYTFDWYAMGWYRQAPGKERELVAAISYSTGSTYYADSVKGRFTISRDNAKNTVYLQMHSLKPEDTAVYYCATRYWRSGYDWPYGSWGQGTQVTVSS`
*A* high polyreactivity

*Q* Again, but for `QVQLVESGGGLVQAGGSLRLSCAASGRTFAWYTMGWYRKAPGKERELVAAISGSGGSTYYADSVKGRFTISRDNAKNTVYLQMNSLKPEDSAVYYCARRVDSYYGHTRYYYWGQGTQITVSS`
*A* high polyreactivity
